# System: SK-LU-1
# measurement-notes: relative viability (nuclei count vs DMSO), 5 days (fraction); higher = more cells survive
# condition-context: first compound 0.02 µM
outcome-measure: relative viability
Format: numeric value only, no unit, no commentary.

compound | outcome-measure | numeric-readout
CCNC(=O)c1noc(-c2cc(C(C)C)c(O)cc2O)c1-c1ccc(CN2CCOCC2)cc1 [Luminespib] + COc1cccc2cc(-c3nc([C@H]4CC[C@H](C(=O)O)CC4)n4ncnc(N)c34)[nH]c12 [OSI-027] (partner 0.5 µM) | relative viability | 0.136

# ---- query compound ----
For reference, reported relative viability for CN1CCN(CCOc2cc(OC3CCOCC3)c3c(Nc4c(Cl)ccc5c4OCO5)ncnc3c2)CC1 [Saracatinib] + C[C@]1(O)C[C@@H](c2nc(-c3ccc4ccc(-c5ccccc5)nc4c3)c3c(N)nccn32)C1 [Linsitinib] (partner 1 µM) stands at 0.92

###

# Test system: NCI-H2023
# measurement-notes: relative viability (nuclei count vs DMSO), 5 days (fraction); higher = more cells survive
# condition-context: first compound 2.53 µM
outcome-measure: relative viability
Format: numeric value only, no unit, no commentary.

compound | outcome-measure | numeric-readout
Nc1cccc2c1CN(C1CCC(=O)NC1=O)C2=O (centres undefined) [Lenalidomide] + COc1cc2c(Oc3ccc(NC(=O)C4(C(=O)Nc5ccc(F)cc5)CC4)cc3F)ccnc2cc1OCCCN1CCOCC1 [Foretinib] (partner 0.25 µM) | relative viability | 0.753

For reference, reported relative viability for Nc1cccc2c1CN(C1CCC(=O)NC1=O)C2=O (centres undefined) [Lenalidomide] + Cc1nc(Nc2ncc(C(=O)Nc3c(C)cccc3Cl)s2)cc(N2CCN(CCO)CC2)n1 [Dasatinib] (partner 0.075 µM) stands at 0.608

For reference, reported relative viability for Nc1cccc2c1CN(C1CCC(=O)NC1=O)C2=O (centres undefined) [Lenalidomide] + O=C(CCCCCCC(=O)Nc1ccccc1)NO [Vorinostat] (partner 1 µM) stands at 0.652

For reference, reported relative viability for Nc1cccc2c1CN(C1CCC(=O)NC1=O)C2=O (centres undefined) [Lenalidomide] + CC(C)C[C@H](NC(=O)[C@H](Cc1ccccc1)NC(=O)c1cnccn1)B(O)O [Bortezomib] (partner 0.002 µM) stands at 1.08

###

# System: HOP-62
# measurement-notes: relative viability (nuclei count vs DMSO), 5 days (fraction); higher = more cells survive
# condition-context: first compound 8 µM
relative viability: recorded values
Format: numeric value only, no unit, no commentary.

compound | numeric-readout
Nc1cccc2c1CN(C1CCC(=O)NC1=O)C2=O (stereo not drawn) [Lenalidomide] + Nc1nc2[nH]cc(CCc3ccc(C(=O)N[C@@H](CCC(=O)O)C(=O)O)cc3)c2c(=O)[nH]1 [Pemetrexed] (partner 0.2 µM) | 0.381
Nc1cccc2c1CN(C1CCC(=O)NC1=O)C2=O (stereo not drawn) [Lenalidomide] + CC(C)C[C@H](NC(=O)[C@H](Cc1ccccc1)NC(=O)c1cnccn1)B(O)O [Bortezomib] (partner 0.002 µM) | 0.722

For reference, reported relative viability for Nc1cccc2c1CN(C1CCC(=O)NC1=O)C2=O (stereo not drawn) [Lenalidomide] + Nc1ncn([C@H]2C[C@H](O)[C@@H](CO)O2)c(=O)n1 [Decitabine] (partner 2 µM) stands at 0.212
